- System: T-47D breast
- test: NCI tumour cell line growth inhibition, 48 h; in the data active means GI50 below about 0.43 µM; inactive means the rest
Labels: YES for active, NO for inactive

smiles-str: C/C(=N/N=C(N)N)c1ccc(NC(=O)Nc2ccc(/C(C)=N/N=C(N)N)cc2)cc1
discrete-label: NO
//
smiles-str: COc1cccc(Nc2nccc(-c3cnn4ncccc34)n2)c1
discrete-label: YES
//
smiles-str: COc1ccc(N(C)c2nc(Cl)nc3cnn(C)c23)cc1
discrete-label: YES
//
smiles-str: COc1ccc2c(c1)C(=O)c1c-2c(Nc2cccc(C(C)=O)c2)nc2ccccc12
discrete-label: NO
//
smiles-str: CCCCCC[C@H](C)NC(=O)c1ccc(Nc2nc3ccccc3c3occc23)cc1
discrete-label: NO
//
smiles-str: C=C1C(=O)O[C@H]2[C@H]1CC/C(COC(=O)NCCCCCCCCNC(=O)OC/C1=C/CC[C@@]3(C)O[C@H]3[C@H]3OC(=O)C(=C)[C@@H]3CC1)=C\CC[C@@]1(C)O[C@@H]21
discrete-label: YES
//
smiles-str: CSc1ccc(C(=O)/C=C/c2ccccc2Cl)cc1
discrete-label: NO
//
smiles-str: Fc1ccc(Nc2nc3ccccc3c3occc23)cc1
discrete-label: YES
//
smiles-str: Nc1ncnc2c1ccn2[C@@H]1O[C@H]([C@H](O)c2ccc(Cl)c(F)c2)[C@@H](O)[C@H]1O
discrete-label: NO

---

- Test system: OVCAR-4 ovarian
- test: NCI tumour cell line growth inhibition, 48 h; in the data active means GI50 below about 0.43 µM; inactive means the rest
Labels: 1.0 = active, 0.0 = inactive

compound: COCc1c(-c2ccc(NC(=O)Nc3cc(C(F)(F)F)ccc3F)c(F)c2)c2c(N)ncnn2c1CN1CCOCC1
discrete-label: 0.0
//
compound: COc1cccc(Nc2nccc(-c3cnn4ncccc34)n2)c1
discrete-label: 1.0
//
compound: CN(C)c1ccc(N=C2C=CC(=O)c3ccccc32)cc1
discrete-label: 0.0
//
compound: CN1CCN(Cc2ccc(NC(=O)c3cncc(C#Cc4cnc(N)c5cnccc45)c3)cc2C(F)(F)F)CC1
discrete-label: 1.0
//
compound: CC1(C)N=C(N)N=C(N)N1c1cccc(Br)c1
discrete-label: 0.0
//
compound: N#CC1C(=O)NC(c2ccccc2[N+](=O)[O-])c2sc3c(F)cccc3c21 (stereo not drawn)
discrete-label: 0.0
//
compound: C/C(=N/N=C(N)N)c1ccc(NC(=O)Nc2ccc(/C(C)=N/N=C(N)N)cc2)cc1
discrete-label: 0.0
//
compound: COC1=CC(=O)c2nc(Cl)ccc2C1=O
discrete-label: 0.0
//
compound: CN1CCN(Cc2cc(NC(=O)c3cccc(C#Cc4cccc5[nH]nc(N)c45)c3)cc(C(F)(F)F)c2)CC1
discrete-label: 0.0
//
compound: Cc1ccc(S(=O)(=O)Nc2ccc(-c3cc(-c4cccc(F)c4)c(C#N)c(N)n3)cc2)cc1
discrete-label: 0.0
//
compound: CCCN1CCC(c2ccc(Nc3nc(Nc4cc(F)ccc4C(N)=O)c4cc[nH]c4n3)c(OC)c2)CC1
discrete-label: 0.0
//
compound: COc1cccc2c1C(=O)c1c(O)c3c(c(O)c1C2=O)C[C@@](O)(C(=O)CO)CC3OC1CC(NCCCC(OC(C)=O)OC(C)=O)C(O)C(C)O1 (stereo partly drawn)
discrete-label: 1.0
//
compound: COc1ccc(/C=C2\c3cc(OC)c(OC)c(OC)c3CC[C@@H]2O)cc1F
discrete-label: 0.0

---

// each record: one item and its GI50 for NCI-H460 lung
measured-attribute: GI50

compound: COCc1c(-c2ccc(NC(=O)Nc3cc(C(F)(F)F)ccc3F)c(F)c2)c2c(N)ncnn2c1CN1CCOCC1
measured-attribute: GI50
assay-value: 2.24 µM
--
compound: C[CH2][Sn]([CH2]C)([O]C(=O)c1ccc(OC)c(OC)c1OC)[O]C(=O)c1ccc(OC)c(OC)c1OC
measured-attribute: GI50
assay-value: > 100 µM
--
compound: Nc1c(F)cc(-c2nc3cc(F)ccc3[se]2)cc1Br
measured-attribute: GI50
assay-value: 0.0189 µM
--
compound: Fc1ccc(Nc2nc3ccccc3c3occc23)cc1
measured-attribute: GI50
assay-value: 4.61 µM
--
compound: CCCCCCCC(=O)[O][Hg][CH2]C1COC([CH2][Hg][O]C(=O)CCCCCCC)CO1 (stereo unspecified)
measured-attribute: GI50
assay-value: 18.2 µM
--
compound: CCC[CH2][Pb]([Cl])([CH2]CCC)[CH2]CCC
measured-attribute: GI50
assay-value: 0.0177 µM
--
compound: CN1CCN(Cc2cc(NC(=O)c3cccc(C#Cc4cccc5[nH]nc(N)c45)c3)cc(C(F)(F)F)c2)CC1
measured-attribute: GI50
assay-value: 1.67 µM
--
compound: CN(C)CCNC(=O)NC[C@H]1CC[C@@H]2[C@H](O1)c1cc(C(F)(F)F)ccc1N[C@H]2c1ccccc1
measured-attribute: GI50
assay-value: 0.14 µM
--
compound: CCn1ccc(NS(=O)(=O)c2ccc(N)cc2)nc1=O
measured-attribute: GI50
assay-value: > 100 µM
--
compound: Cn1c2ccccc2c2c(=O)n(CCCC(=O)OC(=NC3CCCCC3)NC3CCCCC3)c3c(-c4ccccc4)nnn3c21
measured-attribute: GI50
assay-value: > 100 µM
--
compound: CC1(C)N=C(N)N=C(N)N1c1cccc(Br)c1
measured-attribute: GI50
assay-value: 0.435 µM
--
compound: [CH3][Sn]([CH3])([CH3])[O][N+](=O)[O-]
measured-attribute: GI50
assay-value: 8.25 µM
--
compound: C[C@@H](Oc1cc(-n2cnc3ccc(OC[C@@H](O)CO)cc32)sc1C(N)=O)c1ccccc1Cl
measured-attribute: GI50
assay-value: 0.227 µM
--
compound: Cc1nccc2c3ccc(OCc4cn(-c5ccc(Cl)cc5)nn4)cc3n(CC(C)C)c12
measured-attribute: GI50
assay-value: 2.33 µM
--
compound: O=C(/C=C/OC(=O)c1cccc(Cl)c1)c1ccc(Cl)cc1
measured-attribute: GI50
assay-value: > 100 µM
--
compound: CCCCCC[C@H](C)NC(=O)c1ccc(Nc2nc3ccccc3c3occc23)cc1
measured-attribute: GI50
assay-value: 3.81 µM

---

- Tested on: HCT-116 colon
- test: NCI tumour cell line growth inhibition, 48 h
Overview of recorded TGI for various molecules
measured-attribute: TGI

molecule: CCOC(=O)C(OP(=O)(OCC)OCC)C(F)(F)F (stereo unspecified)
target-or-test-system: HCT-116 colon
measured-attribute: TGI
assay-value: > 100 µM
--
molecule: O=c1oc2ccc3ccccc3c2cc1-c1nc2ccc([N+](=O)[O-])cc2o1
target-or-test-system: HCT-116 colon
measured-attribute: TGI
assay-value: > 100 µM
--
molecule: COCCn1cc(-c2csc(-c3c[nH]c4ccc(Br)cc34)n2)c2cccnc21
target-or-test-system: HCT-116 colon
measured-attribute: TGI
assay-value: > 100 µM
--
molecule: CCCCCCCCOC(=O)c1cc([N+](=O)[O-])c(Sc2ncnc3nc[nH]c23)c([N+](=O)[O-])c1
target-or-test-system: HCT-116 colon
measured-attribute: TGI
assay-value: 5.35 µM
--
molecule: c1ccc(N/N=C2\NN=C(c3ccccc3)CS2)cc1
target-or-test-system: HCT-116 colon
measured-attribute: TGI
assay-value: 15.2 µM
--
molecule: C/C(=N/Nc1nc(C)cc(=O)[nH]1)C(=O)O
target-or-test-system: HCT-116 colon
measured-attribute: TGI
assay-value: > 100 µM
--
molecule: COC(=O)/C(=N\NC(N)=O)C(C(=O)C=C(C)C)C(=O)C(=O)Nc1ccc(Cl)c(Cl)c1 (stereo unspecified)
target-or-test-system: HCT-116 colon
measured-attribute: TGI
assay-value: > 100 µM
--
molecule: Cc1cc2nc(N3C(=O)/C(=C/c4ccc(N(C)C)cc4)N=C3c3ccccc3)sc2cc1C
target-or-test-system: HCT-116 colon
measured-attribute: TGI
assay-value: 43 µM
--
molecule: CC1(C)C2CCC(O)(C2)C1N (stereo unspecified)
target-or-test-system: HCT-116 colon
measured-attribute: TGI
assay-value: > 100 µM
--
molecule: O=c1c2c(F)c(F)c(F)c(F)c2sc2nccn12
target-or-test-system: HCT-116 colon
measured-attribute: TGI
assay-value: 27.7 µM
--
molecule: CC1(C)OC(=O)C(Cc2ccccc2)(Cc2ccccc2)C(=O)O1
target-or-test-system: HCT-116 colon
measured-attribute: TGI
assay-value: > 100 µM
--
molecule: O=C(O[C@H]1CCN2C[C@H]3C[C@H](CN4C(=O)CCC[C@H]34)[C@@H]2C1)c1ccc(O)cc1
target-or-test-system: HCT-116 colon
measured-attribute: TGI
assay-value: > 100 µM
--
molecule: Cn1c(=O)c(Cl)c(N=[N+]=[N-])c2ccccc21
target-or-test-system: HCT-116 colon
measured-attribute: TGI
assay-value: > 100 µM
--
molecule: O=[N+]([O-])C(=C/c1cccs1)/C(=C\c1cccs1)[N+](=O)[O-]
target-or-test-system: HCT-116 colon
measured-attribute: TGI
assay-value: 2.49 µM
--
molecule: COC1C(O)C(C)OC(OC2CCC3(C)C(CCC4C3C(O)CC3(C)C(C5=CC(=O)OC5)CCC43O)C2)C1O (stereo unspecified)
target-or-test-system: HCT-116 colon
measured-attribute: TGI
assay-value: 0.533 µM
--
molecule: CCCN(CCC)C1=Nc2ccccc2-n2cnnc2C1
target-or-test-system: HCT-116 colon
measured-attribute: TGI
assay-value: > 100 µM
--
molecule: [N-]=[N+]=CC(=O)CCC(=O)N(c1ccccc1)c1ccccc1
target-or-test-system: HCT-116 colon
measured-attribute: TGI
assay-value: > 10 µM
--
molecule: CCCCc1c2c(c(C)c3c1C(=O)OC3)Oc1ccccc1O2
target-or-test-system: HCT-116 colon
measured-attribute: TGI
assay-value: 27.1 µM
--
molecule: CN(CCCn1ccnc1[N+](=O)[O-])CCCn1ccnc1[N+](=O)[O-]
target-or-test-system: HCT-116 colon
measured-attribute: TGI
assay-value: > 100 µM
--
molecule: COC(=O)C1=NN2c3ccccc3CN([C@@H](C)c3ccccc3)C(=O)[C@@H]2[C@H]1c1ccccc1
target-or-test-system: HCT-116 colon
measured-attribute: TGI
assay-value: > 100 µM
--
molecule: CCN1CCC(O)(c2ccc(O)cc2)C(C(=O)c2ccc(O)cc2)C1 (stereo unspecified)
target-or-test-system: HCT-116 colon
measured-attribute: TGI
assay-value: 54.9 µM
